System: Human primary T cells
method: IL-2 ELISA, Human Primary T Cell, Anti-CD3+CD28+ (Example 3)
Type: cell-based
statedConditions: Homo sapiens, T-cell, 24 h, anti-CD3+CD28 stimulation
pIC50: −log10 of the molar value.
measuredMetric: pIC50

Example entries and their recorded answers appear below.
[
  {
    "molecule": "CN1C(C)(C)CC(Nc2nc(Nc3ccc(Br)c(Cl)c3)ncc2F)CC1(C)C [Compound I-153]",
    "pIC50": 6.68
  },
  {
    "molecule": "CN1C(C)(C)CC(Nc2nc(Nc3ccc(N4CCN(S(C)(=O)=O)CC4)c(C(F)(F)F)c3)ncc2F)CC1(C)C [Compound I-244]",
    "pIC50": 6.61
  },
  {
    "molecule": "CC(C)N1CCc2cc(Nc3ncc(F)c(NC4CC(C)(C)N(C)C(C)(C)C4)n3)ccc21 [II-53]",
    "pIC50": 5.32
  },
  {
    "molecule": "Cc1ccc(Nc2ncc(F)c(NC3CC(C)(C)N(C)C(C)(C)C3)n2)cc1Br [Compound I-160]",
    "pIC50": 6.69
  },
  {
    "molecule": "Cc1ccc(Nc2ncc(F)c(N(Cc3ccccc3)C3CC(C)(C)N(C)C(C)(C)C3)n2)cc1C#N [Compound I-313]",
    "pIC50": 6.10
  }
]

(I) CCN1C(=O)C(C)(C)Oc2cc(Nc3ncc(OC)c(NC4CC(C)(C)N(C)C(C)(C)C4)n3)ccc21 [II-130]
(II) CN1C(C)(C)CC(Nc2nc(Nc3ccc(-c4ccoc4)c(Cl)c3)ncc2F)CC1(C)C [Compound I-155]
(III) CN1CCN(c2cccc(Nc3ncc(F)c(NC4CC(C)(C)N(C)C(C)(C)C4)n3)c2)CC1 [Compound I-2]
Q: Order the records, beginning with the lowest pIC50 and ending with the highest. Field: ranking. Enter the labels in the order requested.
A: III, I, II
